Data credit: PubChem BioAssay (NCI)

# Tested on: MDA-MB-435 melanoma
# experimentalProtocol: NCI-60 one-dose screen, 48 h (100 = growth as untreated, 0 = no growth, -100 = all killed)
# condition: 10 µM unless noted
About 83,000 compounds went through this panel and 20% of them were active in at least one assay; those are over-represented in the sample as a whole.
Each record is given Fulfilled if its reported growth is strictly below 10%. Records at or above 10% are given Not fulfilled.

Solved entries:
compound: C=CCn1c(SCC(=O)Nc2ccc(C(=O)/C=C/c3ccc(Cl)cc3)cc2)nnc1-c1c[nH]c2ccccc12
cat: Not fulfilled

compound: O=C(Nc1cccc(C(F)(F)F)c1)c1cc(-c2ccc(F)cc2F)ccc1O
cat: Fulfilled

compound: O=C(NCc1ncc[nH]1)c1ccc(-c2nc3ccc4[nH]ncc4c3c3c2CCCC3)cc1
cat: Not fulfilled

compound: COc1cccc2c1CN(C(=O)c1ccc(O)c(C(=O)N3Cc4ccc(OCCC[P+](c5ccccc5)(c5ccccc5)c5ccccc5)cc4C3)c1)C2
cat: Not fulfilled

compound: CC1(C)CC[C@]2(C(=O)N3CCOCC3)CC[C@]3(C)C(=CC[C@@H]4[C@@]5(C)C/C(=C/c6ccccn6)C(=O)C(C)(C)[C@@H]5CC[C@]43C)[C@@H]2C1
cat: Not fulfilled

# next compound below
Enquiry: Say whether its growth is strictly beneath 10%. Entry: NC(N)=Nc1ccc(Oc2cccc(Nc3ccc(Br)c(C(F)(F)F)c3)c2)cn1
Return: Fulfilled

----------
For each of the molecules below, state its growth.
# System: UACC-257 melanoma
# experimentalProtocol: NCI-60 one-dose screen, 48 h (100 = growth as untreated, 0 = no growth, -100 = all killed)
# condition: 10 µM unless noted
About 83,000 compounds went through this panel and 20% of them were active in at least one assay; those are over-represented in the sample as a whole. Calls of active or inactive are those of the source. The calls were made as follows: active = growth percent below 10; inactive = the rest.

Example results:
molecule: COc1cccc(O)c1/C=C(/C)c1ccc2c(OC)cccc2[o+]1
target: UACC-257 melanoma
growth: 118% (inactive)
--
molecule: NC(N)=Nc1ccc(Oc2cccc(NC(N)=Nc3ccc(Br)c(C(F)(F)F)c3)c2)cc1
target: UACC-257 melanoma
growth: 54.8% (inactive)
--
molecule: COc1ccc(C2CC(c3ccc(Nc4nc(NCCO)nc(N5CCOCC5)n4)cc3)=Nc3c(N)nc(N)nc3N2)cc1 (centres undefined)
target: UACC-257 melanoma
growth: 109% (inactive)

Can you give me growth for all of these, one by one?
1. CCOc1ccc(NC2=C(Cl)C(=O)c3nc(C)ccc3C2=O)cc1
2. CC(=O)O[C@@H]1C(=O)N(c2cnccn2)[C@H]1c1ccccc1[N+](=O)[O-]

Return:
["-89.2% (active)", "44.7% (inactive)"]

----------
# System: OVCAR-4 ovarian
# experimentalProtocol: NCI-60 one-dose screen, 48 h (100 = growth as untreated, 0 = no growth, -100 = all killed)
# condition: 10 µM unless noted
About 83,000 compounds went through this panel and 20% of them were active in at least one assay; those are over-represented in the sample as a whole.
observedProperty: growth (%)
Numbers only, in %.

compound: C[C@H](CCC(=O)NCc1ccc(C(=O)Nc2ccccc2N)cc1)[C@H]1CC[C@H]2[C@@H]3[C@@H](O)C[C@@H]4C[C@H](O)CC[C@]4(C)[C@H]3CC[C@]12C
growth (%): 65.3

compound: Cc1ccc(NC(=O)c2ccc(CN3CCOCC3)c(C(F)(F)F)c2)cc1Oc1ccc(-c2[nH]nc3ncnc(N)c23)cc1
growth (%): 72.7

compound: CC1(C)CC[C@]23CC[C@]4(C)[C@H](CC[C@@H]5[C@@]6(C)CCCN(CO)C(C)(C)[C@@H]6CC[C@]54C)[C@H]2[C@H]1OC3
growth (%): 85.6

compound: Cn1ccnc1C(=O)/C=C/c1ccc(CNC(=O)c2ccc(F)cc2)cc1
growth (%): 42

compound: O=C(CSc1nnc(-c2ccc(Cl)cc2)n1-c1ccccc1)Nc1ccc(Br)cc1
growth (%): -1.23

Can you give me growth for all of these, one by one?
1. N/C(=N\C(N)=N\c1nc2ccccc2s1)c1ccc(C(F)(F)F)cc1
2. N#Cc1cccc(NC(=O)c2cc(-c3ccc(F)cc3F)ccc2O)c1
3. O=S(=O)(NCCNc1nccc(-n2cnc3ccccc32)n1)c1ccc(Br)cc1
4. CNc1ncc2cc(-c3ccc(-c4ncccc4F)cc3Cl)c(=O)n(CC3OCC(N)CO3)c2n1 (centres undefined)

Return:
94.6
8.85
82.2
117
